- assayed system: T1, Dog ASGR-1 (dog)
- T1 construct: Expressed on HEK 293 cells or as membrane prep on beads; cDNA GenBank XM_546579
- T1 chain: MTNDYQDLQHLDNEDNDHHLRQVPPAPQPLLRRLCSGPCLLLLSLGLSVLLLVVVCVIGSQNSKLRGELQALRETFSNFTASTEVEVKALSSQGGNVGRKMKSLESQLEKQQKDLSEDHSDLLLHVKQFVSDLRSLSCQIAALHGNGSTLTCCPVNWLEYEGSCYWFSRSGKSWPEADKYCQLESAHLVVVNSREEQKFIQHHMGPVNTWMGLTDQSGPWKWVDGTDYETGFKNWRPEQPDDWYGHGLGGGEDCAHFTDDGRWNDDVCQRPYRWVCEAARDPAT
- protocol description: FACS on transfected HEK 293 cells or membrane preps on beads; Y = signal at least 2x irrelevant IgG
readout kind: binding result

binder	value
218G4 (antibody, V domains shown, Tested as hybridoma supernatant at normalized concentration) VH: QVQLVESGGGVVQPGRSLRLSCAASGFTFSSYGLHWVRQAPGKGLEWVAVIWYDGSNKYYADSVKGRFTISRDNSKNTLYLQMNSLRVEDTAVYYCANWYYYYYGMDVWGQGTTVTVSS VL: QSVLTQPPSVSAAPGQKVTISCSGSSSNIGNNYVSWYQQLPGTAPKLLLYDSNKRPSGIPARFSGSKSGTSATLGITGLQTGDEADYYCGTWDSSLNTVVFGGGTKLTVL	binds
176H4 (antibody, V domains shown, Tested as hybridoma supernatant at normalized concentration) VH: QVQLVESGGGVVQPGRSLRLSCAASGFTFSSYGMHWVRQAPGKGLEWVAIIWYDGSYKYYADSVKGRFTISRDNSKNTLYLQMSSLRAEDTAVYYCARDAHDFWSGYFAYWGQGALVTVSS VL: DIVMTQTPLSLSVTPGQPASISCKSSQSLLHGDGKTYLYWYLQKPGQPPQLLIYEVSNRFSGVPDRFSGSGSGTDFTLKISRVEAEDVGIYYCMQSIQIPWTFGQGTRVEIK	binds
184E7 (antibody, V domains shown, Tested as hybridoma supernatant at normalized concentration) VH: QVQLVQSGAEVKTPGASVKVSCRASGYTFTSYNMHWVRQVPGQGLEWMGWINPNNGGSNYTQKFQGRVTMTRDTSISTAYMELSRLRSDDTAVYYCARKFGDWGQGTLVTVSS VL: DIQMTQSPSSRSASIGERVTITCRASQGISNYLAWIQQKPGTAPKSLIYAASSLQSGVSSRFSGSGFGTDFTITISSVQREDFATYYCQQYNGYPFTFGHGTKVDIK	binds
